Target: Recombinant Human NF-Kappab-Inducing Kinase (NIK/MAP3K14) (Homo sapiens, UniProt Q99558)
Sequence (Q99558 whole entry): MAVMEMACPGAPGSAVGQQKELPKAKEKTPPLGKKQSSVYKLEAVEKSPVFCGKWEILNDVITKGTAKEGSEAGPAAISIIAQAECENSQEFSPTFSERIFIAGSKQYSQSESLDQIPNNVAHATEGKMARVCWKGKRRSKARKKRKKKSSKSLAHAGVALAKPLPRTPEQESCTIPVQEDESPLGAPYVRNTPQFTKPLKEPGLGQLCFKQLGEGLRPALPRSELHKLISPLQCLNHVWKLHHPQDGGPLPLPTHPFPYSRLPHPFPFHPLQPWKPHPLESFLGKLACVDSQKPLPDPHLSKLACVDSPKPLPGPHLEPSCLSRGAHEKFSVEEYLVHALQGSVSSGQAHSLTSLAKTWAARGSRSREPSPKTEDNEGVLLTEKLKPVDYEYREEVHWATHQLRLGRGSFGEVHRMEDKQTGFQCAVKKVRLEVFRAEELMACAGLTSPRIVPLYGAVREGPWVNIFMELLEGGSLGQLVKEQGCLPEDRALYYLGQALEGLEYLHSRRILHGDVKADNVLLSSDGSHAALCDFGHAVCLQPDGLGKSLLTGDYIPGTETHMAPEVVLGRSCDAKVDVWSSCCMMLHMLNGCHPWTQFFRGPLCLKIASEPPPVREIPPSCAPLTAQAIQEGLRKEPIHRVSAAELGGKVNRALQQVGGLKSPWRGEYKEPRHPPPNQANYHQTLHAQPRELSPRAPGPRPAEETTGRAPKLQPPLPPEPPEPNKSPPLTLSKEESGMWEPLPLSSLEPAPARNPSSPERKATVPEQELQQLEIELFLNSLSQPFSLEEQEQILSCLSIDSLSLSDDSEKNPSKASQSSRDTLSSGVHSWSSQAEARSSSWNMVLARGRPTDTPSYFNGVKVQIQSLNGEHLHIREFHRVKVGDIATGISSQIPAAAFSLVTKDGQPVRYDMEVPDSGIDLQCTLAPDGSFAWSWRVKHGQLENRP
Assay: Inhibition of auto-phosphorylation of recombinant human NIK/MAP3K14 (AlphaScreen)
Format: biochemical
Conditions: NIK/MAP3K14 auto-phosphorylation, 5 microM ATP, 1 nM enzyme, 2 h at 25° C.; average of values; read-out: Assay 1 IC50
So I've got a bunch of compounds here, and I need their IC50 values.

* CN1CC[C@@](O)(c2cc(-c3cccc(-n4nc(C(=O)O)c5c4CCCC5)c3)no2)C1=O | > 501 nM
* CN1CC[C@@](O)(c2cc(-c3cccc(-c4c[nH]c5nccnc45)c3)no2)C1=O | < 100 nM
* CCn1ncc2cc(-c3cccc(-c4cc([C@]5(O)CCN(C)C5=O)on4)c3)cnc21 | > 501 nM

Working through the 3 compounds below one at a time, give IC50 for each.
1. CN1CC[C@@](O)(c2cc(-c3cccc(-c4nc(C(N)=O)c5ccc(F)cc5n4)c3)no2)C1=O
2. CN1CC[C@@](O)(c2cc(-c3cccc(-c4ncc5cn[nH]c5n4)c3)no2)C1=O
3. CN1CC[C@@](O)(c2cc(-c3ccnc(-n4nc(C(N)=O)c5ccccc54)c3)no2)C1=O

1: < 100 nM; 2: > 501 nM; 3: < 100 nM

Working through the 6 compounds below one at a time, give IC50 for each.
1. CN1CC[C@@](O)(c2cc(-c3cccc(-c4cccc(C(N)=O)c4)c3)no2)C1=O
2. CN1CC[C@@](O)(c2cc(-c3ccnc(-c4cc(C5CC5)c(N)c(C(N)=O)n4)c3)no2)C1=O
3. CN1CCC(O)(c2cn(-c3cccc(-c4nc(C(N)=O)c5ccccc5n4)c3)cn2)C1=O (racemic)
4. CC(C)N1CCn2c(-c3cccc(-c4cc([C@]5(O)CCN(C)C5=O)on4)c3)nc(C(N)=O)c2C1
5. CN1CC[C@@](O)(c2cc(-c3cccc(-n4nc(C(N)=O)c5cc(-c6ccn(C)n6)ccc54)c3)no2)C1=O
6. [2H]C1([2H])N(C)C(=O)[C@](O)(c2cc(-c3cccc(-c4nc(C(N)=O)n5c4CCCC5)c3)no2)C1([2H])[2H]

1: > 501 nM; 2: < 100 nM; 3: < 100 nM; 4: > 501 nM; 5: < 100 nM; 6: < 100 nM

---

So I've got a bunch of compounds here, and I need their pIC50 values.
Biological target: Recombinant Human NF-Kappab-Inducing Kinase (NIK/MAP3K14) (Homo sapiens, UniProt Q99558)
Assay: Inhibition of auto-phosphorylation of recombinant human NIK/MAP3K14 (AlphaScreen)
Assay type: biochemical
Conditions: NIK/MAP3K14 auto-phosphorylation, 5 microM ATP, 1 nM enzyme, 2 h at 25° C.; average of values; read-out: Assay 1 IC50
pIC50: −log10 of the molar value.

As a guide, the following entries are already answered.
* Cc1ncc(C#N)cc1Nc1sc(-c2cccc(-c3cc([C@]4(O)CCN(C)C4=O)on3)c2)nc1C(N)=O | > 7.00
* COc1cc(C(N)=O)nc(-c2cc(-c3cc([C@]4(O)CCN(C)C4=O)on3)ccn2)c1 | > 7.00

Working through the 7 compounds below one at a time, give pIC50 for each.
1. CN1CC[C@@](O)(c2cc(-c3cccc(-c4ccc5c(cnn5C)n4)c3)no2)C1=O
2. CN1CC[C@@](O)(c2cn(-c3cccc(-c4cccc(C(N)=O)n4)c3)nn2)C1=O
3. CN1CC[C@@](O)(c2cc(-c3cccc(-c4nc(C(N)=O)n5c4CCCC5)c3)no2)C1=O
4. CN1CC[C@@](O)(c2cc(-c3cccc(-c4ncc5ccnc(N)c5n4)c3)no2)C1=O
5. CN1CC[C@@](O)(c2cc(-c3cccc(-c4nc(C(N)=O)cs4)c3)no2)C1=O
6. CN1CC[C@@](O)(c2cc(-c3cccc(-c4nc(Nc5ccn(C)n5)c(C(F)(F)F)c(C(N)=O)n4)c3)no2)C1=O
7. COc1cc(-c2cc(-c3cc([C@]4(O)C[C@@H](C(F)(F)F)N(C)C4=O)on3)c(F)cc2F)nc2c(N)ncnc12

1: < 6.30; 2: > 7.00; 3: > 7.00; 4: > 7.00; 5: > 7.00; 6: > 7.00; 7: < 6.30

Working through the 3 compounds below one at a time, give pIC50 for each.
1. CN1CCC(O)(c2cc(-c3cccc(Nc4nc5c(N)ncnc5s4)c3)on2)C1=O (racemic)
2. CN1CC[C@@](O)(c2cc(-c3cccc(-c4ncc(N)c(C(=O)N[C@H]5CCOC5)n4)c3)no2)C1=O
3. COc1nc(-c2cccc(-c3cc([C@]4(O)CCN(C)C4=O)on3)c2)nc(OC)c1N

1. < 6.30
2. > 7.00
3. 6.30 to 7.00

Working through the 2 compounds below one at a time, give pIC50 for each.
1. CCn1cnc2c(C(N)=O)nc(-c3cccc(-c4cc([C@]5(O)CCN(C)C5=O)on4)c3)cc21
2. COc1cc(-c2cccc(-c3cc([C@]4(O)CCN(C)C4=O)on3)c2)nc2[nH]ncc12

1: 6.30 to 7.00; 2: 6.30 to 7.00
